organism: Rattus norvegicus; assay: DrugMatrix - Regimen: Daily Repeat; type: toxicity, organism-based, Sprague-Dawley; parameters: regimen Daily Repeat, gender Male, age 6-8 weeks; conditions: in vivo, po, 0 mg/kg, 72 h, tissue Blood, route oral GAVAGE, dose level Control, time 3 day, vehicle .5 % CMC
Form field: PLATELET COUNT (one value per entry).
Expressed in x10E3/uL, but write only the number.

Completed entries (count: 6):
>  <molecule>
CN(C)CCC=C1c2ccccc2COc2ccccc21 [DOXEPIN]

>  <testResult>
1327.5

$$$$
>  <molecule>
NC(=O)NC(=O)Cc1ccccc1 [PHENACEMIDE]

>  <testResult>
994.17

$$$$
>  <molecule>
CCOc1cc(N)c(Cl)cc1C(=O)NCC1CN(Cc2ccc(F)cc2)CCO1 (stereo not given) [MOSAPRIDE]

>  <testResult>
1342

$$$$
>  <molecule>
Nc1ccc(C(=O)O)c(O)c1

>  <testResult>
1074.83

$$$$
>  <molecule>
CC(C)NCC(O)COc1ccc(CC(N)=O)cc1 (stereo not given)

>  <testResult>
1327.5

$$$$
>  <molecule>
COc1cc(/C=C/C(=O)O)ccc1O [FERULATE]

>  <testResult>
1184.67

$$$$

For COc1ccc(Cl)cc1C(=O)NCCc1ccc(S(=O)(=O)NC(=O)NC2CCCCC2)cc1 [GLYBURIDE] the molecule record lists PLATELET COUNT as 1074.83

Quick note, PLATELET COUNT for CCN(CC)CCNC(=O)c1cc(Cl)c(N)cc1OC [METOCLOPRAMIDE] landed at 1386

// sample CCN1C[C@]2(COC)[C@H](O)C[C@H](OC)[C@@]34[C@@H]5C[C@@]6(O)[C@H](OC(=O)c7ccccc7)[C@@H]5[C@@](OC(C)=O)([C@@H]([C@H](OC)[C@H]23)[C@@H]14)[C@@H](O)[C@@H]6OC , its PLATELET COUNT was 1378.2

molecule CC(C)(C#N)c1cc(Cn2cncn2)cc(C(C)(C)C#N)c1 , PLATELET COUNT observed: 1162.33

----------
species: Rattus norvegicus; assay: DrugMatrix - Regimen: Daily Repeat; type: toxicity, organism-based, Sprague-Dawley; parameters: regimen Daily Repeat, gender Male, age 6-8 weeks; conditions: in vivo, po, 0 mg/kg, 120 h, tissue Plasma, route oral GAVAGE, dose level Control, time 5 day, vehicle .5 % CMC
metric: SODIUM (MEQ/L)
Respond with the bare value in MEQ/L.

Worked examples follow.
>  <molecule>
CCN(CC)CCNC(=O)c1cc(Cl)c(N)cc1OC [METOCLOPRAMIDE]

>  <SODIUM (MEQ/L)>
155.5

$$$$
>  <molecule>
Nc1ccc(C(=O)O)c(O)c1

>  <SODIUM (MEQ/L)>
144.83

$$$$
>  <molecule>
CCN1CCN(c2cc3c(cc2F)c(=O)c(C(=O)O)cn3C2CC2)CC1

>  <SODIUM (MEQ/L)>
155.5

$$$$
>  <molecule>
CCN1C[C@]2(COC)[C@H](O)C[C@H](OC)[C@@]34[C@@H]5C[C@@]6(O)[C@H](OC(=O)c7ccccc7)[C@@H]5[C@@](OC(C)=O)([C@@H]([C@H](OC)[C@H]23)[C@@H]14)[C@@H](O)[C@@H]6OC

>  <SODIUM (MEQ/L)>
151.5

$$$$
>  <molecule>
Cl.NC[C@H]1CC[C@H](C(=O)Oc2ccc(CCC(=O)O)cc2)CC1 [CETRAXATE HYDROCHLORIDE]

>  <SODIUM (MEQ/L)>
144.25

$$$$

Now for a further molecule.
The reported SODIUM of the molecule CN(C)CCOC(c1ccccc1)c1ccccc1.Cn1c(=O)c2[nH]c(Cl)nc2n(C)c1=O [DIMENHYDRINATE] was 143.95

----------
organism: Rattus norvegicus; assay: DrugMatrix - Regimen: Daily Repeat; type: toxicity, organism-based, Sprague-Dawley; set-up: regimen Daily Repeat, gender Male, age 6-8 weeks; details: in vivo, po, 0 mg/kg, 120 h, tissue Plasma, route oral GAVAGE, dose level Control, time 5 day, vehicle .5 % CMC
metric: SODIUM (MEQ/L)
The reply should be a number in MEQ/L, with the unit left off.

compound CCN1CCCC1CNC(=O)c1cc(S(N)(=O)=O)ccc1OC (stereo not drawn) [SULPIRIDE] , SODIUM observed: 142.75

In plain terms, COc1ccc(Cl)cc1C(=O)NCCc1ccc(S(=O)(=O)NC(=O)NC2CCCCC2)cc1 [GLYBURIDE] has a documented SODIUM of 144.83

For reference, reported SODIUM for CCOc1cc(N)c(Cl)cc1C(=O)NCC1CN(Cc2ccc(F)cc2)CCO1 (stereo not drawn) [MOSAPRIDE] stands at 143.62
